- assay system: T1, Human CD19-his protein (human, UniProt P15391 20-291)
- T1 construct: bought protein; also called human CD19 protein; recombinant human CD19-His; not shown: His tag
- T1 sequence (looked up): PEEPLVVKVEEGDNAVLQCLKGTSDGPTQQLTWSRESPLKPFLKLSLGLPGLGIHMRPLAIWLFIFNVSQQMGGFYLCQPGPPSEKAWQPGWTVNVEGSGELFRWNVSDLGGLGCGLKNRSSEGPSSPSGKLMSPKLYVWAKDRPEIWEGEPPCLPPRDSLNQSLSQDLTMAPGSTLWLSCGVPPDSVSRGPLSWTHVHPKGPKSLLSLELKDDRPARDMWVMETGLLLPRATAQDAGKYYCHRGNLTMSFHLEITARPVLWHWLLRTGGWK
- assay overview: ELISA, antibody at 100 nM
readout: OD450

[[record]]
binder = "F2.15.26 (antibody, human IgG1, V domains shown, human-murine chimeric antibody, human IgG1) VH: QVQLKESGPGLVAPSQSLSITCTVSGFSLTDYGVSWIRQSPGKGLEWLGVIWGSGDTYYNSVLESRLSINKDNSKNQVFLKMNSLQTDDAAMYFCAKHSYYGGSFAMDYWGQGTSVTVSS VL: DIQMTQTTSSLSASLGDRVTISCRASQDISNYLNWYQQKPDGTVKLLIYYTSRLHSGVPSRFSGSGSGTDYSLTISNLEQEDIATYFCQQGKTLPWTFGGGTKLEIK"
observed_measurement = 1.54


I would be grateful if you could share the reported OD450 for F3.23.10 (antibody, human IgG1, V domains shown, human-murine chimeric antibody, human IgG1) VH: EFQLQQSGPELVKPGASVKISCKASDYSFTDYNMNWVKQSNGASLEWIGIINPNFGSTSYNQKFKGKATLTVDQSSSTAFMQLNSLTSEDSAVYYCARSEYYGSSGFAYWGQGTLVTVSA VL: DVVVTQTPLSLPVSFGDQVSISCRSSQSLVNSYGNTYLSWYLHKPGQSPQLLIYGISNRFSGVPDRFSGSGSGTDFTLKITTIKPEDLGMYYCLQGTHQPWTFGGGTKLEIK .
2.14

I would be grateful if you could share the reported OD450 for F3.5.1 (antibody, human IgG1, V domains shown, human-murine chimeric antibody, human IgG1) VH: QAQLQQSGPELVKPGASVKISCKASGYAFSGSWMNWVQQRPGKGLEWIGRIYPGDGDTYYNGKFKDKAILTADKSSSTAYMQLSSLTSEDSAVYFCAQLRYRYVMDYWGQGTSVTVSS VL: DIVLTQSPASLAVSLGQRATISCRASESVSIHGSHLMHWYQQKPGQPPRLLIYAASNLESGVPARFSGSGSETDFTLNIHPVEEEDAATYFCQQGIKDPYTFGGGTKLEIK .
2.01

Every entry's value here was drawn from patent US20250042994A1.
